Test system: C. neoformans
Assay: antifungal screening test of analogs, C. neoformans (CN)
Assay type: cell-based
Settings: Cryptococcus neoformans, read-out: Partial inhibition
Method: The analog compounds were tested for their activity against C. albicans, C. neoformans, A. fumigatus and T. rubrum. Partial inhibition of the fungus of between 25 to 75% was measured along with the total inhibition (MIC) by these anolog compounds. A description of the partial inhibition measurement can be found in R. L. Stiller, et al The Journal of Infectious Diseases, 147, No. 6 (1983). The structure of these analog compounds is as follows. […]
measurement.kind: IC (25-75%) (µg/mL)
Numbers only, in µg/mL.

Example entries begin here.
structure.string	unit.of.measurement	IC (25-75%)
CCCCCCCCCC(=O)OC[C@@H](O)COP(=O)([O-])OCC[N+](C)(C)C	µg/mL	250
CCCCCCCCCCCCCCCCCC(=O)OC[C@@H](O)COP(=O)([O-])OCC[N+](C)(C)C	µg/mL	31
CCCCCCCCCCCC(=O)OC[C@@H](O)COP(=O)([O-])OCC[N+](C)(C)C	µg/mL	31

Record summary for CCCCCCCC/C=C\CCCCCCCC(=O)OC[C@@H](O)COP(=O)(O)OCCN : reported IC (25-75%) = 100

----------
System: C. albicans
Assay: antifungal screening test of analogs, C. albicans (CA)
Assay type: cell-based
Conditions: Candida albicans
measurement.kind: MIC (µg/mL)
Give bare numbers, in µg/mL.

structure.string	MIC [µg/mL]
CCCCCCCCCCCC(=O)OC[C@@H](O)COP(=O)([O-])OCC[N+](C)(C)C	500
CCCCCCCC/C=C\CCCCCCCC(=O)OC[C@@H](O)COP(=O)([O-])OCC[N+](C)(C)C	31

Please report MIC for every entry that follows.
1. CCCCCCCCCCCCCC(=O)OC[C@@H](O)COP(=O)([O-])OCC[N+](C)(C)C
2. CCCCCCCCCCCCCCCC(=O)OC[C@@H](O)COP(=O)([O-])OCC[N+](C)(C)C

### Response
1. 31
2. 31

----------
Tested on: A. fumigatus
Experiment: antifungal screening test of analogs, A. fumigatus (AF)
Format: cell-based
Conditions: Aspergillus fumigatus, read-out: Partial inhibition
measurement.kind: IC (25-75%) (µg/mL)
Give bare numbers, in µg/mL.

Example entries begin here.
structure.string	IC (25-75%) [µg/mL]
CCCCCCCC/C=C\CCCCCCCC(=O)OC[C@@H](O)COP(=O)([O-])OCC[N+](C)(C)C	31
CCCCCCCCCCCCCC(=O)OC[C@@H](O)COP(=O)([O-])OCC[N+](C)(C)C	31

The record that follows has no IC (25-75%) shown yet.
Note to self: IC (25-75%) of CCCCCCCCCCCCCCCC(=O)OC[C@@H](O)COP(=O)([O-])OCC[N+](C)(C)C with A. fumigatus was 31

----------
Tested on: T. rubrum
Assay: antifungal screening test of analogs, T. rubrum (TR)
Type: cell-based
Details: Trichophyton rubrum
Consider the following molecules; for each one, report its MIC.
Give bare numbers, in µg/mL.

structure.string	unit.of.measurement	MIC
CCCCCCCCCCCC(=O)OC[C@@H](O)COP(=O)([O-])OCC[N+](C)(C)C	µg/mL	250

Please report MIC for every entry that follows.
1. CCCCCCCCCCCCCCCC(=O)OC[C@@H](O)COP(=O)([O-])OCC[N+](C)(C)C
2. CCCCCCCC/C=C\CCCCCCCC(=O)OC[C@@H](O)COP(=O)([O-])OCC[N+](C)(C)C
3. CCCCCCCCCCCCCC(=O)OC[C@@H](O)COP(=O)([O-])OCC[N+](C)(C)C

### Response
[500, 31, 31]

Where do the numbers come from? From patent US5681829A.
